These measurements were taken from patent US20210324028A1.

# Study System: T1, human IL-2Rβ (human, UniProt P14784 27-240, limits assumed)
# T1 construct: also called hIL-2Rβ; IL-2 receptor beta
# T1 sequence (looked up): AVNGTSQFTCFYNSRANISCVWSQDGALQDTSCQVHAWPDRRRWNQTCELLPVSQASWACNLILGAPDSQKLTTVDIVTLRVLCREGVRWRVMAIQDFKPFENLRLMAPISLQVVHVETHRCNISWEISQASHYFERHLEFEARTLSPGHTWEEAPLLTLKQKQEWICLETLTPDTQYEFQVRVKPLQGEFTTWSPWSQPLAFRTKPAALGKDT
# Assay Details: SPR, steady state

{"columns": ["Binder", "Uom", "Comparison Symbol", "Kd"],
 "data": [
  ["hIL-15 V49R/N4L (ligand) NWVLVISDLKKIEDLIQSMHIDATLYTESDVHPSCKVTAMKCFLLELQRISLESGDASIHDTVENLIILANNSLSSNGNVTESGCKECEELEEKNIKEFLQSFVHIVQMFINTGGGGSGHHHHHHHHGGGLNDIFEAQKIEWHE", "nM", "=", 429],
  ["hIL-15 V49R/N4G (ligand) NWVGVISDLKKIEDLIQSMHIDATLYTESDVHPSCKVTAMKCFLLELQRISLESGDASIHDTVENLIILANNSLSSNGNVTESGCKECEELEEKNIKEFLQSFVHIVQMFINTGGGGSGHHHHHHHHGGGLNDIFEAQKIEWHE", "nM", ">", 500],
  ["hIL-15 V49R/H32V (ligand) NWVNVISDLKKIEDLIQSMHIDATLYTESDVVPSCKVTAMKCFLLELQRISLESGDASIHDTVENLIILANNSLSSNGNVTESGCKECEELEEKNIKEFLQSFVHIVQMFINTGGGGSGHHHHHHHHGGGLNDIFEAQKIEWHE", "nM", "=", 247],
  ["hIL-15 V49R/I68R (ligand) NWVNVISDLKKIEDLIQSMHIDATLYTESDVHPSCKVTAMKCFLLELQRISLESGDASIHDTVENLIRLANNSLSSNGNVTESGCKECEELEEKNIKEFLQSFVHIVQMFINTGGGGSGHHHHHHHHGGGLNDIFEAQKIEWHE", "nM", ">", 500]
]}
